Test target: hCA-II (Homo sapiens)
Construct: Purification of isoenzymes hCA-I and hCA-II from human erythrocytes; from tissue; host or cells: human erythrocytes (blood)
Protocol notes: Esterase activity assay (4-nitrophenylacetate, 348 nm), hCA-II
Type: biochemical
Test settings: hCA-II purified from human erythrocytes, 25 °C, pH 7.4
Measured endpoint: IC50 (µM)
Write it as a number; the unit µM goes unstated.

// IC50 value for CCOC(=O)c1c(C(=O)Nc2nnc(S(N)(=O)=O)s2)nn(-c2cccc([N+](=O)[O-])c2)c1-c1ccccc1 [compound 1] : 5.6

* * *

Test target: hCA-II (Homo sapiens, UniProt P00918)
Construct: Purification of isoenzymes hCA-I and hCA-II from human erythrocytes
Protocol notes: Determination of Ki values (esterase activity, Lineweaver–Burk), hCA-II
Test settings: five substrate concentrations, Lineweaver–Burk plot
Measured endpoint: pKi
Reminder that pKi is minus the log10 of a molar concentration.

// pKi value for `CCOC(=O)c1c(C(=O)Nc2nnc(S(N)(=O)=O)s2)nn(-c2cccc([N+](=O)[O-])c2)c1-c1ccccc1` : 5.28

* * *

Test target: hCA-I (Homo sapiens, UniProt P00915)
Construct: Purification of isoenzymes hCA-I and hCA-II from human erythrocytes; from tissue; host or cells: human erythrocytes (blood)
Sequence (P00915 whole entry): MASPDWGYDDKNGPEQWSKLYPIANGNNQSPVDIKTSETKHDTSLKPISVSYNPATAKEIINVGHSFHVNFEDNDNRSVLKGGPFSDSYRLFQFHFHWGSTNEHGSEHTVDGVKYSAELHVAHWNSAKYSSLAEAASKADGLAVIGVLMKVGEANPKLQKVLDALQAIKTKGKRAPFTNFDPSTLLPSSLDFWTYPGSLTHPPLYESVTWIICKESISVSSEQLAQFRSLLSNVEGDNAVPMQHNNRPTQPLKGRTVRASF
Protocol notes: Esterase activity assay (4-nitrophenylacetate, 348 nm), hCA-I
Format: biochemical
Test settings: hCA-I purified from human erythrocytes, 25 °C, pH 7.4
Procedure: In order to purify hCA-I and hCA-II isoenzymes, first, human blood was centrifuged at 1500 rpm for 20 min, and after the removal of the plasma, the erythrocytes were washed with an isotonic solution (0.9% NaCl). After that, the erythrocytes were lysed with 1.5 volume of ice-cold water. The lysate was centrifuged at 20 000 rpm for 30 min to remove cell membranes and non-lysed cells. […]
Measured endpoint: IC50 (nM)
Write it as a number; the unit nM goes unstated.

Field IC50 (system: hCA-I (Homo sapiens, UniProt P00915)) for entry `CCOC(=O)c1c(C(=O)Nc2nnc(S(N)(=O)=O)s2)nn(-c2cccc([N+](=O)[O-])c2)c1-c1ccccc1` = 2800

* * *

Test target: hCA-II (Homo sapiens)
Construct: Purification of isoenzymes hCA-I and hCA-II from human erythrocytes; from tissue; host or cells: human erythrocytes (blood)
Protocol notes: CO2-hydratase activity assay (Wilbur and Anderson), hCA-II
Type: biochemical
Test settings: hCA-II purified from human erythrocytes; CO2 hydration
Experimental: In order to purify hCA-I and hCA-II isoenzymes, first, human blood was centrifuged at 1500 rpm for 20 min, and after the removal of the plasma, the erythrocytes were washed with an isotonic solution (0.9% NaCl). After that, the erythrocytes were lysed with 1.5 volume of ice-cold water. The lysate was centrifuged at 20 000 rpm for 30 min to remove cell membranes and non-lysed cells. […]
Measured endpoint: IC50 (nM)
Write it as a number; the unit nM goes unstated.

Field IC50 (system: hCA-II (Homo sapiens)) for entry CCOC(=O)c1c(C(=O)Nc2nnc(S(N)(=O)=O)s2)nn(-c2cccc([N+](=O)[O-])c2)c1-c1ccccc1 [compound 1] = 900
